experiment: Lethal dose was evaluated in male mouse; format: toxicity, organism-based; conditions: in vivo
measured.property: LD50 (mg/kg)

| compound | result.units | experimental.result |
| --- | --- | --- |
| CO[C@@H]1C[C@@H](NC(=O)N(CCCl)N=O)[C@H](O)[C@@H](CO)O1 [ECOMUSTINE] | mg/kg | 43.3 |

* * *

assay: Lethal dose was evaluated in female mouse; type: toxicity, organism-based; details: in vivo
measured.property: LD50 (mg/kg)

| molecule | experimental.result |
| --- | --- |
| CO[C@@H]1C[C@@H](NC(=O)N(CCCl)N=O)[C@H](O)[C@@H](CO)O1 [ECOMUSTINE] | 40.7 |

// data source = ChEMBL document CHEMBL1124317
